Please consider the recorded Ki for Polycomb protein EED (Homo sapiens, UniProt O75530) in what follows.
recorded-endpoint: Ki (µM)

Recorded Ki, per entry:
molecule	measured-on	unit-of-measure	Ki
CN(C)[C@H]1CN([C@H]2COc3cccc(F)c32)C[C@@H]1c1cn(C)c2ccccc12	Polycomb protein EED (Homo sapiens, UniProt O75530)	µM	0.61
Cc1cccc(F)c1CN1C[C@H](c2ccc(C(=O)N(C)C)cc2)[C@@H](N(C)C)C1 (racemic)	Polycomb protein EED (Homo sapiens, UniProt O75530)	µM	0.018
Cc1cccc(F)c1CN1C[C@H](c2cn(C)c3c(N4CCN(C)C(=O)C4)cccc23)[C@@H](N(C)C)C1 (mixture of isomers)	Polycomb protein EED (Homo sapiens, UniProt O75530)	µM	0.00074

P = CN(C)[C@H]1CN([C@H]2CCc3ccccc32)C[C@@H]1c1cn(C)c2ccccc12 (racemic)
Q = Cc1cccc(F)c1CN1C[C@H](c2cn(C)c3ccccc23)[C@@H](N(C)C)C1
Hi there! Just curious which has the higher Ki between P and Q . Answer with the label corresponding to your selection.
P
